The reported numbers originate from patent US11173151B2.

assay_target: human V1a receptor (Homo sapiens)
Sequence (P37288 whole entry): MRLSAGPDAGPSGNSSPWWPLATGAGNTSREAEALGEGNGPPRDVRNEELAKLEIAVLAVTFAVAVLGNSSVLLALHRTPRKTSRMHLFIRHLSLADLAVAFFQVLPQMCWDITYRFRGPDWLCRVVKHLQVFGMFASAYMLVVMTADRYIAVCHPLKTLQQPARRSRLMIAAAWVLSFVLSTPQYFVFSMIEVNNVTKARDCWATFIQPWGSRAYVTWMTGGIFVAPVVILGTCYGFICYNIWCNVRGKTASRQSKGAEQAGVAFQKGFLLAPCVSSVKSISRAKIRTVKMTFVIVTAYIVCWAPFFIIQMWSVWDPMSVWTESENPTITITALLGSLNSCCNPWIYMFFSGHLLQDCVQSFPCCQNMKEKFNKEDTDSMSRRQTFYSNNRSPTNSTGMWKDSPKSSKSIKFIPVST
test_method_notes: Cellular in vitro assay for determining vasopressin receptor activity, V1a receptor cell line (CHO, aequorin luminescence)
measurement_conditions: CHO cell line transfected with human V1a receptor; [Arg]-vasopressin at EC50 concentration; read-out: IC50 hV1a
Entries and their measured pIC50 follow.
API: returns pIC50 as number; meaning -log10 of concentration in mol/L.

Completed entries (count: 2):
compound	pIC50
CC1CCN(C(=O)c2ccccc2-n2cnc(Cn3nc(-c4ccc(Cl)cc4)n(C[C@H](O)C(F)(F)F)c3=O)n2)CC1 [Example 347]	8.12
O=C(c1ncccc1-n1cnc(Cn2nc(-c3ccc(Cl)cc3)n(C[C@@H](O)C(F)(F)F)c2=O)n1)N1CCC[C@@H]1C(F)(F)F [Example 478]	6.54

Proceed to the following item.
Form field pIC50, entry Cc1cccc(NC(=O)c2ccccc2-n2cnc(Cn3nc(-c4ccc(Cl)cc4)n(C[C@H](O)C(F)(F)F)c3=O)n2)c1 [Example 361] : 8.59
